# system_tested: pEGFR, NCI-H1975 cells (L858R/T790M EGFR) (Homo sapiens, UniProt P00533, L858R/T790M)
# Construct: pEGFR (Tyr1068) TR-FRET
# Sequence (P00533 25-1210 T790M/L858R): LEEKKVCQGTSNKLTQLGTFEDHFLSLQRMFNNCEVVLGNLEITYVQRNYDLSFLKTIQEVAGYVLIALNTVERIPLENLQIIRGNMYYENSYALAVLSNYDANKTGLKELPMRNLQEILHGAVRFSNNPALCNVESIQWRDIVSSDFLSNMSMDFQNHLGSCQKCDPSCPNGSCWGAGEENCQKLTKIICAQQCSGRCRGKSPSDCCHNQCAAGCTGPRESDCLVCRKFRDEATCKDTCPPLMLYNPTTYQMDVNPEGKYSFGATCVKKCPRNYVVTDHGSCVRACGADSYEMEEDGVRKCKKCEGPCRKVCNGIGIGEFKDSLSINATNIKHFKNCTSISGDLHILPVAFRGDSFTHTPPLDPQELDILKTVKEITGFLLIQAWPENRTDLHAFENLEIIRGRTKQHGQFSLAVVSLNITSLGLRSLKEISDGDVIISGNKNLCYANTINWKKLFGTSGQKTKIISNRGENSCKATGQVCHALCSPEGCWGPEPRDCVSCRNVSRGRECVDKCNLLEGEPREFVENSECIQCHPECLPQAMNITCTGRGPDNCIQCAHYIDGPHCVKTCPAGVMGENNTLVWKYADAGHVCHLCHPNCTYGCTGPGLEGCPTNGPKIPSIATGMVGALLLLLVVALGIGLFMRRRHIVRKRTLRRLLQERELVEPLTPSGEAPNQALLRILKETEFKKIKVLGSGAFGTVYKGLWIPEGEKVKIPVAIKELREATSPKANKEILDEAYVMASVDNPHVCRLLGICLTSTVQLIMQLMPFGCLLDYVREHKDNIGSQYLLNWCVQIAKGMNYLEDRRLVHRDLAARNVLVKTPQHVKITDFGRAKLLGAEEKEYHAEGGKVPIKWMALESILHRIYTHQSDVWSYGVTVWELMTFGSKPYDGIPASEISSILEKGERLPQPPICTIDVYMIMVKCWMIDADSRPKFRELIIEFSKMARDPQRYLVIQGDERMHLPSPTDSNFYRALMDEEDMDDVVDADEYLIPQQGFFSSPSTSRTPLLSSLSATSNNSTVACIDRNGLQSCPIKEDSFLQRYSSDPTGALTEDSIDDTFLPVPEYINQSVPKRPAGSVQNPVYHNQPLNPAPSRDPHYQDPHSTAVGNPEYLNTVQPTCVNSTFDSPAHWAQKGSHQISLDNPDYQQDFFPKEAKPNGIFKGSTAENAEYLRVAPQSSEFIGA
# method_description: Cellular EGFR phosphorylation assay (LANCE Ultra TR-FRET) in NCI-H1975 cells
# Assay type: cell-based
# details: 4 hours at 37° C., read-out: H1975 pEGFR IC50
This listing pairs compounds with measured IC50.
measured_metric: IC50 (nM)

CCOc1nn(CCO)c2c1/C=C/c1n[nH]c3cnc(cc13)-c1cnn(C)c1OC[C@H](C)N(CC)C2 = 14.2
CCNc1nn([C@@H](C)CO)c2c1/C=C/c1n[nH]c3cnc(cc13)-c1c(C)nn(C)c1O[C@@H](C)CN(C)C2 = 3.54
CCOc1nn(CCO)c2c1/C=C/c1n[nH]c3cnc(cc13)-c1c(C)nn(C)c1O[C@H](C)CN(C(C)C)C2 = 3.01
CCOc1nn([C@@H](C)CO)c2c1/C=C/c1n[nH]c3cnc(cc13)-c1c(C)nn(C)c1O[C@@H](C)CNC2 = 14.1
